Hi there, I'd appreciate the recorded viability, T/C for every entry that follows.
system: LG0703-F948-PDC complex spheroid viability; assay: Anticancer human tumor LG0703-F948-PDC patient-derived lung adenocarcinoma cell line growth inhibition [RAS]; conditions: second compound 0.1 µM; first compound 0.1 µM; active compounds read low
Answers are plain numbers, in %.

- C=CC(=O)Nc1cc(Nc2nccc(-c3cn(C)c4ccccc34)n2)c(OC)cc1N(C)CCN(C)C + C#Cc1c(F)ccc2cc(O)cc(-c3ncc4c(N5CC6CCC(C5)N6)nc(OCC56CCCN5CC(F)C6)nc4c3F)c12: 14

Please state, for each entry, its recorded viability, T/C.
1. CCC(CC)c1cc(NC2CCC(N)C2)n2nccc2n1 (stereo not given) + C#Cc1c(F)ccc2cc(O)cc(-c3ncc4c(N5CC6CCC(C5)N6)nc(OCC56CCCN5CC(F)C6)nc4c3F)c12
2. Cc1nc(N2CCC3(CC2)COC(C)C3N)c(CO)nc1Sc1ccnc(N)c1Cl (stereo not given) + C#Cc1c(F)ccc2cc(O)cc(-c3ncc4c(N5CC6CCC(C5)N6)nc(OCC56CCCN5CC(F)C6)nc4c3F)c12
3. C[C@@H](NC(=O)c1ncnc(N)c1Cl)c1ncc(C(=O)Nc2cc(C(F)(F)F)c(Cl)cn2)s1 + C#Cc1c(F)ccc2cc(O)cc(-c3ncc4c(N5CC6CCC(C5)N6)nc(OCC56CCCN5CC(F)C6)nc4c3F)c12
4. NC1c2ccccc2OC12CCN(c1cnc3c(N4CCCc5ncccc54)n[nH]c3n1)CC2 (stereo not given) + C#Cc1c(F)ccc2cc(O)cc(-c3ncc4c(N5CC6CCC(C5)N6)nc(OCC56CCCN5CC(F)C6)nc4c3F)c12

[A]
[80.8, 63, 87.6, 27.7]

----------
tested on: LG0703-F948-PDC complex spheroid viability; test: Anticancer human tumor LG0703-F948-PDC cell line growth inhibition [RAS]; conditions: second compound 0.03 µM; first compound 0.0316 µM; active compounds read low;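 further: spheroids exposed to agents for 7 days; 100% = DMSO vehicle wells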
So basically, if viability, T/C comes in under 60% it's yes (1), and if it's 60% or more it's no (0).

# example entries with known answers
- CC(=O)OC12COC1CC(O)C1(C)C(=O)C(O)C3=C(C)C(OC(=O)C(O)C(NC(=O)OC(C)(C)C)c4ccccc4)CC(O)(C(OC(=O)c4ccccc4)C21)C3(C)C (configuration not stated) + CCn1c(-c2cccnc2C(C)OC)c2c3cc(ccc31)N1CCOC(CC(NC(=O)C(C(C)C)N(C)C(=O)C3(F)CCN(C(=O)C#CC(C)(C)N(C)C)CC3)C(=O)N3CCCC(N3)C(=O)OCC(C)(C)C2)C1: yes (1)
- Cc1nc(N2CCC3(CC2)COC(C)C3N)c(CO)nc1Sc1ccnc(N)c1Cl (configuration not stated) + CCn1c(-c2cccnc2C(C)OC)c2c3cc(ccc31)N1CCOC(CC(NC(=O)C(C(C)C)N(C)C(=O)C3(F)CCN(C(=O)C#CC(C)(C)N(C)C)CC3)C(=O)N3CCCC(N3)C(=O)OCC(C)(C)C2)C1: no (0)
- C=CC(=O)Nc1cc(Nc2nccc(-c3cn(C)c4ccccc34)n2)c(OC)cc1N(C)CCN(C)C + CCn1c(-c2cc(N3CCN(C)CC3)cnc2C(C)OC)c2c3cc(ccc31)-c1csc(n1)CC(NC(=O)C1CC1C)C(=O)N1CCCC(N1)C(=O)OCC(C)(C)C2: yes (1)
- CCN1CCN(Cc2ccc(Nc3ncc(F)c(-c4cc(F)c5nc(C)n(C(C)C)c5c4)n3)nc2)CC1 + CCn1c(-c2cccnc2C(C)OC)c2c3cc(ccc31)N1CCOC(CC(NC(=O)C(C(C)C)N(C)C(=O)C3(F)CCN(C(=O)C#CC(C)(C)N(C)C)CC3)C(=O)N3CCCC(N3)C(=O)OCC(C)(C)C2)C1: no (0)
- Cc1nc(N2CCC3(CC2)COC(C)C3N)c(CO)nc1Sc1ccnc(N)c1Cl (configuration not stated) + CCn1c(-c2cc(N3CCN(C)CC3)cnc2C(C)OC)c2c3cc(ccc31)-c1csc(n1)CC(NC(=O)C1CC1C)C(=O)N1CCCC(N1)C(=O)OCC(C)(C)C2: yes (1)

[Q] Threshold test, viability, T/C < 60%: CC1(O)CCCC1n1c(=O)c(C(F)F)cc2cnc(NC3CCN(S(C)(=O)=O)CC3)nc21 (configuration not stated) + CCn1c(-c2cccnc2C(C)OC)c2c3cc(ccc31)N1CCOC(CC(NC(=O)C(C(C)C)N(C)C(=O)C3(F)CCN(C(=O)C#CC(C)(C)N(C)C)CC3)C(=O)N3CCCC(N3)C(=O)OCC(C)(C)C2)C1
[A] no (0)
